Tested on: Leptosphaeria nodorum (LEPTNO)
test: In vitro fungitoxicity assay against Leptosphaeria nodorum in copper-minus / copper-plus liquid medium
Format: cell-based
condition: Parastagonospora nodorum; test compound 0.05 μg/mL, copper-minus medium, 25° C., 72 h, growth by light scattering; read-out: LEPTNO % Inhn. Minus Copper Observed
Method: In vitro fungitoxicity assays against Leptosphaeria nodorum (LEPTNO) were conducted using the liquid growth medium described by Coursen and Sisler (American Journal of Botany 1960, 47, 541-549) except that copper micronutrient, normally included as CuSO4, was omitted. […] LEPTNO was grown on potato dextrose agar in 9 cm diameter petri dishes for 7 days (d). […] Growth inhibition was determined by comparing growth in the presence of test compound with growth in control wells lacking test compound.
observable: inhibition of growth at 0.05 µg/mL (%)
Quick reminder: number only, in %, skip the unit.

For record C/C(=N\NC(=O)c1ccc(Cl)s1)c1cc(Br)cc(Br)c1O the listed inhibition of growth at 0.05 µg/mL is 0

The reported inhibition of growth at 0.05 µg/mL of the compound C/C(=N\NC(=O)c1ccoc1C)c1cc(Br)cc(Br)c1O was 0

The measured inhibition of growth at 0.05 µg/mL associated with Cc1cc(C(=O)N/N=C/c2cc(Cl)cc(Cl)c2O)c2cc(Br)ccc2n1 reads 2.5

Memo: C/C(=N\NC(=O)c1sc(C)nc1C)c1ccccc1O , reported inhibition of growth at 0.05 µg/mL: 0

Sample Cc1occc1C(=O)N/N=C/c1cc(Br)cc(Br)c1O ; inhibition of growth at 0.05 µg/mL observed: 9.1

The compound listed as C/C(=N\NC(=O)c1ccc(Cl)s1)c1ccccc1O shows inhibition of growth at 0.05 µg/mL equal to 0

// sample Cn1cc(C(=O)N/N=C/c2cc(Cl)cc(Cl)c2O)c2ccccc21 , its inhibition of growth at 0.05 µg/mL was 16.3

Value of inhibition of growth at 0.05 µg/mL reported for the compound O=C(N/N=C/c1cc(Br)cc(Br)c1O)c1ccsc1 is 0

Reported inhibition of growth at 0.05 µg/mL of C/C(=N\NC(=O)c1cnn(-c2ccc(Cl)cc2)c1C(F)(F)F)c1cc(Cl)cc(Cl)c1O : 0

====

System: Leptosphaeria nodorum (LEPTNO)
test: In vitro fungitoxicity assay against Leptosphaeria nodorum in copper-minus / copper-plus liquid medium
Assay type: cell-based
condition: Parastagonospora nodorum; test compound 0.05 μg/mL, copper-minus medium, 25° C., 72 h, growth by light scattering; read-out: LEPTNO % Inhn. Minus Copper Observed
I'd appreciate it if you could supply inhibition of growth at 0.05 µg/mL values for the items below.
// return numeric value only (unit: %, not printed)

Lookup result for Cc1cc(C(=O)N/N=C/c2ccccc2O)c2cc(Br)ccc2n1 [Compound 3] ; measured inhibition of growth at 0.05 µg/mL: 0

C/C(=N\NC(=O)c1cc(C)nc2ccc(Br)cc12)c1ccccc1O [Compound 2] yielded inhibition of growth at 0.05 µg/mL of 0

Given item Cc1cc(C(=O)N/N=C/c2cc(Br)cc(Br)c2O)cs1 [Compound 32] , the value recorded as its inhibition of growth at 0.05 µg/mL is 0

Input O=C(N/N=C/c1cc(Cl)cc(Cl)c1O)c1cnn(-c2ccc(Cl)cc2)c1C(F)(F)F [Compound 17] . Output inhibition of growth at 0.05 µg/mL: 15.8

molecule O=C(N/N=C/c1ccccc1O)c1cc2ccccc2s1 [Compound 20] , inhibition of growth at 0.05 µg/mL observed: 4.2

For reference, reported inhibition of growth at 0.05 µg/mL for C/C(=N\NC(=O)c1csc(C)c1)c1ccccc1O [Compound 39] stands at 0

get_value(item= O=C(N/N=C/c1ccccc1O)c1cccs1 [Compound 7] , readout=inhibition of growth at 0.05 µg/mL) returns 0

Query O=C(N/N=C/c1cc(Br)cc(Br)c1O)c1cnn(-c2ccc(Cl)cc2)c1C(F)(F)F [Compound 29] yields inhibition of growth at 0.05 µg/mL of 7.8

Lookup result for C/C(=N\NC(=O)c1csc(C)c1)c1cc(Br)cc(Br)c1O [Compound 51] ; measured inhibition of growth at 0.05 µg/mL: 2.2

# molecule Cc1nn(-c2ccccc2)nc1C(=O)N/N=C/c1ccccc1O [Compound 21] ; its inhibition of growth at 0.05 µg/mL = 0

Entry O=C(N/N=C/c1ccccc1O)c1ccc(Cl)s1 [Compound 23] , inhibition of growth at 0.05 µg/mL reported as 0

// recorded inhibition of growth at 0.05 µg/mL for C/C(=N\NC(=O)c1ccoc1C)c1ccccc1O [Compound 9] : 3.9

Lookup result for Cc1cc(C(=O)N/N=C/c2cc(Cl)cc(Cl)c2O)cs1 [Compound 27] ; measured inhibition of growth at 0.05 µg/mL: 5.4

Value of inhibition of growth at 0.05 µg/mL reported for the molecule C/C(=N\NC(=O)c1ccoc1C)c1cc(Cl)cc(Cl)c1O [Compound 46] is 0

Per the record, C/C(=N\NC(=O)c1cnn(-c2ccc(Cl)cc2)c1C(F)(F)F)c1ccccc1O [Compound 35] has inhibition of growth at 0.05 µg/mL of 4.3

GET /value?item= C/C(=N\NC(=O)c1cnn(-c2ccc(Cl)cc2)c1C(F)(F)F)c1cc(Br)cc(Br)c1O [Compound 48] &field=inhibition of growth at 0.05 µg/mL returns 4.3

The recorded inhibition of growth at 0.05 µg/mL for C/C(=N\NC(=O)c1ccsc1)c1ccccc1O [Compound 40] is 0

GET /value?item= Cc1occc1C(=O)N/N=C/c1cc(Br)ccc1O [Compound 6] &field=inhibition of growth at 0.05 µg/mL returns 2.2

Entry C/C(=N\NC(=O)c1sc(C)nc1C)c1cc(Br)cc(Br)c1O [Compound 49] , inhibition of growth at 0.05 µg/mL reported as 2.6
